System: HEK-293T
assay.summary: Multiplex assay against HEK293T
Format: toxicity, cell-based
applied.conditions: human, 24 h, 1 µM, compound concentration 1 uM, replicate 2
recorded.metric: Population Membrane Permeable-Phenotype (%)
Numbers only here, please. The scale is %.

Fill in: Population Membrane Permeable-Phenotype (%) of COc1ccc(-c2ccc3c(N4CCOCC4)nc(N4C[C@@H](C)O[C@@H](C)C4)nc3n2)cc1CO is ___
5

Item NC(=O)c1cccc(-c2cc(Nc3ccc(OC(F)(F)F)cc3)ncn2)c1 has what recorded Population Membrane Permeable-Phenotype (%)?
4

Param item = O=C(Nc1ccc(-c2ccnc(Nc3ccc(N4CCOCC4)cc3)n2)cc1)[C@@H]1CCCN1 ; retrieve measured Population Membrane Permeable-Phenotype (%).
6

What does the record list as Population Membrane Permeable-Phenotype (%) for CCN1CCN(Cc2ccc(Nc3ncc(F)c(-c4cc(F)c5nc(C)n(C(C)C)c5c4)n3)nc2)CC1.CS(=O)(=O)O ?
2

----------
Tested on: Fibroblast
assay.summary: Multiplex assay against human fibroblast
Assay type: toxicity, cell-based
applied.conditions: 24 h, 10 µM, compound concentration 10 uM, replicate 2
recorded.metric: Total Cell Count
# respond with the number and nothing more

Entry C=CCn1c(=O)c2cnc(Nc3ccc(N4CCN(C)CC4)cc3)nc2n1-c1cccc(C(C)(C)O)n1 has what Total Cell Count?
84

Look up Total Cell Count: CN1CCC(=C2c3ccccc3CC(=O)c3sccc32)CC1.O=C(O)/C=C/C(=O)O [KETOTIFEN FUMARATE]
80

For CCOC(=O)c1c(C)[nH]c2ccc3c(c12)CN1CCc2cc(OC)ccc2C1O3 (configuration not stated) , what is its reported Total Cell Count?
87

Any idea what Total Cell Count was measured for COC(=N)c1nc2ccc3ncnc(Nc4ccc(OC)cc4F)c3c2s1 ?
73

Could you tell me which Total Cell Count is on file for CCOc1cc2ncc(C#N)c(Nc3ccc(OCc4ccccn4)c(Cl)c3)c2cc1NC(=O)/C=C/CN(C)C ?
124

# Total Cell Count lookup, item COc1cc(N2CCN(C)CC2)ccc1Nc1ncc2c(n1)N(C)c1ccccc1C(=O)N2C
44

Given CCc1cccc(CC)c1NC(=O)c1nn(C)c2c1CCc1cnc(Nc3ccc(C(=O)NC4CCN(C)CC4)cc3OC(F)(F)F)nc1-2 , state its recorded Total Cell Count.
77

----------
System: U2OS
assay.summary: Incucyte cell viability with U2OS; also: filed as whole numbers so only -1 and 0 and 1 occur
Type: toxicity, cell-based
applied.conditions: human, 18 h, 10 µM, compound concentration 10 uM, replicate number 1, timepoint 18 hours
Exercise: state measured Growth Rate for each of the molecules provided.
Answer with a bare number; do not write a unit.

// Growth Rate lookup, key: CCn1cc(-c2ccnc3[nH]c(-c4cccc(CN(C)C)c4)cc23)c(-c2ccc(NC(=O)N(C)C)cc2)n1
0

Given S=C(NCCCc1c[nH]cn1)NCCCN(Cc1ccc(Cl)c(Cl)c1)c1ccc(Br)cn1 , state its recorded Growth Rate.
0

Requested field: Growth Rate. Item: C#C[C@]1(O)CC[C@H]2[C@@H]3CCc4cc(O)ccc4[C@H]3CC[C@@]21C
0

// query Growth Rate value for entry CCCCCNC(=O)NS(=O)(=O)c1cc([N+](=O)[O-])ccc1NC1CCCCC1
0

Which Growth Rate is listed for O=C(NS(=O)(=O)c1ccc(NCC2CCOCC2)c([N+](=O)[O-])c1)c1ccc(N2CCN(Cc3ccc(C(F)(F)F)cc3-c3ccc(Cl)cc3)CC2)cc1Oc1cnc2[nH]ccc2c1 ?
0

Can you share its Growth Rate? I mean this molecule: COc1cc(N2CCN(C)CC2)ccc1Nc1ncc2c(n1)N(C)c1ccccc1C(=O)N2C
0

Given CO[C@H]1CC[C@H](CNc2ccc(S(=O)(=O)NC(=O)c3ccc(N4CCN(CC5=C(c6ccc(Cl)cc6)CC(C)(C)CC5)CC4)cc3Oc3cnc4[nH]ccc4c3)cc2[N+](=O)[O-])CC1 , state its recorded Growth Rate.
0

----------
Test system: U2OS
assay.summary: Multiplex assay against U2OS
Format: toxicity, cell-based
applied.conditions: human, 48 h, 1 µM, compound concentration 1 uM, replicate 1
Returns the class for an entry based on its Population Mitotic Cells (%). Class ranges: low value (below 40%), medium value (40% to below 70%), high value (70% or more)

Exam item: assign C=C1/C(=C\C=C2/CCC[C@]3(C)[C@@H]([C@H](C)/C=C/[C@H](C)C(C)C)CC[C@@H]23)C[C@@H](O)C[C@@H]1O to the correct category.
high value

Could you place Cl.O=c1c2cccn2c2ccccc2n1CCCN1CCC(c2ccc(Cl)cc2)CC1 in its proper category? Many thanks.
medium value

Field: class (Population Mitotic Cells (%)) — entry: CCc1cccc(CC)c1NC(=O)c1nn(C)c2c1CCc1cnc(Nc3ccc(C(=O)NC4CCN(C)CC4)cc3OC(F)(F)F)nc1-2
medium value

For the record Cc1cn(-c2cc(NC(=O)c3ccc(C)c(Nc4nccc(-c5cccnc5)n4)c3)cc(C(F)(F)F)c2)cn1 , report the class its Population Mitotic Cells (%) corresponds to.
low value

Hey, which category is O=C(Nc1ccc(-n2nc(-c3cccnc3)cc2C(F)(F)F)cn1)c1ccc(-c2ccccc2)c(F)c1 in, do you know?
medium value

----------
System: U2OS
assay.summary: Multiplex assay against U2OS
Format: toxicity, cell-based
applied.conditions: human, 24 h, 1 µM, compound concentration 1 uM, replicate 2
Exercise: state measured Population Healthy Nuclei (%) for each of the molecules provided.
Respond with the bare value in %.

Given the molecule Cn1nc(C(F)(F)F)cc1-c1cnc(N2CCc3cc(S(=O)(=O)Nc4c(F)cc(Cl)cc4F)cc(N4CCCC4=O)c32)nc1 , what is its reported Population Healthy Nuclei (%)?
81

Which Population Healthy Nuclei (%) is reported for this molecule? O=C(Nc1ccc(Cl)cc1)Nc1cccc(-c2cccc(N3CCCC3)n2)c1
75

# Population Healthy Nuclei (%) lookup, item CN1CCC(=C2c3ccccc3CC(=O)c3sccc32)CC1.O=C(O)/C=C/C(=O)O [KETOTIFEN FUMARATE]
86

Any idea what its Population Healthy Nuclei (%) is? The molecule is Cc1cc(C)c(S(=O)(=O)N(Cc2ccc(-c3cccc(S(C)(=O)=O)c3)cc2)Cc2ccc(C(F)(F)F)o2)c(C)c1
80

I'd like to know its Population Healthy Nuclei (%). The molecule in question is CCN1CCN(Cc2ccc(Nc3ncc(F)c(-c4cc(F)c5nc(C)n(C(C)C)c5c4)n3)nc2)CC1.CS(=O)(=O)O
61

Which Population Healthy Nuclei (%) reading was recorded for the molecule Cc1ccc2nc(NCCN)c3ncc(C)n3c2c1.O=C(O)C(F)(F)F.O=C(O)C(F)(F)F ?
84

Suppose we examine the molecule S=C(NCCCc1c[nH]cn1)NCCCN(Cc1ccc(Cl)c(Cl)c1)c1ccc(Br)cn1 ; what Population Healthy Nuclei (%) value has been reported?
80

Return reported Population Healthy Nuclei (%); argument: Cl.Oc1ccc2c3c1O[C@H]1c4[nH]c5c(c4C[C@@]4(O)[C@@H](C2)N(CC2CC2)CC[C@]314)C[C@@]1(O)[C@H]2Cc3ccc(O)c4c3[C@@]1(CCN2CC1CC1)[C@H]5O4
91

Consider the molecule shown here: COc1ccc(S(=O)(=O)N(CCO)c2ccccc2CN(C)C/C=C/c2ccc(Cl)cc2)cc1.O=P(O)(O)O What is its recorded Population Healthy Nuclei (%)?
58

Query (molecule): Cl.O=c1c2cccn2c2ccccc2n1CCCN1CCC(c2ccc(Cl)cc2)CC1 ; field requested: Population Healthy Nuclei (%)
70

Requested read-out: Population Healthy Nuclei (%). Entry: O=C(Cc1ccc(-c2ccc(OCCN3CCOCC3)cc2)cn1)NCc1ccccc1
66

Dear colleague, I am looking for the recorded Population Healthy Nuclei (%) of the following molecule: CNc1cc(Oc2cc(C(=O)Nc3cc(N4CCN(C)CC4)cc(C(F)(F)F)c3)ccc2C)ncn1
63

# Population Healthy Nuclei (%) lookup, item CCc1cccc(CC)c1NC(=O)c1nn(C)c2c1CCc1cnc(Nc3ccc(C(=O)NC4CCN(C)CC4)cc3OC(F)(F)F)nc1-2
81

// Population Healthy Nuclei (%) lookup, key: Cc1ccc(C(=O)Nc2cccc(C(F)(F)F)c2)cc1Nc1nc(-c2cccnc2)nc2c1cnn2C
72

// lookup Population Healthy Nuclei (%) for CN(C)C(=O)C(CCN1CCC(O)(c2ccc(Cl)cc2)CC1)(c1ccccc1)c1ccccc1.Cl [LOPERAMIDE HYDROCHLORIDE]
71

Look up Population Healthy Nuclei (%) for this molecule: COc1cccc2cc(-c3nc([C@H]4CC[C@H](C(=O)O)CC4)n4ncnc(N)c34)[nH]c12
82

----------
Hi there, I'd appreciate the recorded Total Cell Count for every entry that follows.
System: HEK-293T
assay.summary: Multiplex assay against HEK293T
Assay type: toxicity, cell-based
applied.conditions: human, 24 h, 1 µM, compound concentration 1 uM, replicate 2
Respond with the number and no other words.

Request: Total Cell Count, test system HEK-293T, entry S=C(NCCCc1c[nH]cn1)NCCCN(Cc1ccc(Cl)c(Cl)c1)c1ccc(Br)cn1
239

Given the entry Cc1ccc2nc(NCCN)c3ncc(C)n3c2c1.O=C(O)C(F)(F)F.O=C(O)C(F)(F)F , what Total Cell Count was observed with HEK-293T?
2957

Notebook entry, HEK-293T assay: Total Cell Count of Cl.O=c1c2cccn2c2ccccc2n1CCCN1CCC(c2ccc(Cl)cc2)CC1 = ?
296

Can you look up Total Cell Count on HEK-293T for CN1CCN(C(=O)C(C)(C)c2ccc(C(=O)Nc3cn4cc(-c5cc(C(C)(C)C)cc(C(C)(C)C)c5)ccc4n3)cc2)CC1 ?
1792

Recorded Total Cell Count for COC(=N)c1nc2ccc3ncnc(Nc4ccc(OC)cc4F)c3c2s1 with HEK-293T, please?
1668

Give HEK-293T Total Cell Count for Cc1ccc(C(=O)Nc2cccc(C(F)(F)F)c2)cc1Nc1nc(-c2cccnc2)nc2c1cnn2C
172

Entry CCn1cc(-c2ccnc3[nH]c(-c4cccc(CN(C)C)c4)cc23)c(-c2ccc(NC(=O)N(C)C)cc2)n1 , system HEK-293T: what Total Cell Count was measured?
1602

# value lookup — system HEK-293T, readout Total Cell Count, item COc1cc(N2CCN(C)CC2)ccc1Nc1ncc2c(n1)N(C)c1ccccc1C(=O)N2C
225
